The compounds listed here are annotated with their Growth Rate.
System: U2OS
assay.info: Incucyte cell viability with U2OS; note: filed as whole numbers so only -1 and 0 and 1 occur
Assay type: toxicity, cell-based
test.conditions: human, 24 h, 10 µM, compound concentration 10 uM, replicate number 1, timepoint 24 hours

// below: answered compounds
CNC(=O)Nc1ccc2c(c1)[C@@]1(CC2)OC(=O)N(CC(=O)N(Cc2ccc(F)cc2)[C@@H](C)C(F)(F)F)C1=O [A-486]: 0
CCCOc1ccc([C@H]2[C@H](C(=O)O)[C@@H](c3ccc4c(c3)OCO4)CN2CC(=O)Nc2c(CC)cccc2CC)cc1 [A-192621]: 0
CNCc1ccccc1-c1csc([C@@H](C)Nc2nc(C)nc3cc(OC)c(OC)cc23)c1 [BAY-293]: 0
COc1ccc(S(=O)(=O)N2c3ccc(Cl)cc3[C@](O)(c3ccccc3Cl)[C@@H]2C(=O)N2CCC[C@H]2C(N)=O)cc1OC [RELCOVAPTAN]: 0
C[C@H](N)COC(=O)[C@@H](CCCCN)NC(=O)Cc1c(-c2ccc3ccccc3c2)[nH]c2c1ccc1ccccc12: 1
CSc1cccnc1N1CCN(Cc2nc3ccccc3[nH]2)CC1 [A-769]: 1

Which Growth Rate is listed for "O=C([O-])c1cc2ccccc2c(Cc2c(O)c(C(=O)[O-])cc3ccccc23)c1O.[Na+].[Na+]" ? 0

Which Growth Rate is listed for COc1cc2ncnc(Nc3ccc(F)c(Cl)c3)c2cc1OCCCN1CCOCC1 [GEFITINIB] ? 0

Which Growth Rate is listed for C[C@]1(C(=O)N(CCCC(=O)O)Cc2cccc(Cl)c2)CCN1C(=O)c1csc2ccccc12 [GLPG-0974] ? 1

Which Growth Rate is listed for CN(C)C(=O)Cn1cc(-c2nc([C@@](C)(c3ccc(-c4cnc(N)nc4)cc3)C3CC3)no2)cn1 [BI 665915] ? 1

Which Growth Rate is listed for "CCOC(=O)CCNc1cc(N2CCc3ccccc3CC2)nc(-c2cccnc2)n1" ? 1

Which Growth Rate is listed for "CCc1ccc(OCc2ccccc2C(=O)Nc2ccc3nc(C)cc(N)c3c2)cc1.Cl" ? 0

Which Growth Rate is listed for "COc1cc(-c2cn([C@H]3CCc4ccccc4N(CC(F)(F)F)C3=O)nn2)ccc1-n1ccc(C)n1" ? 0

Which Growth Rate is listed for O[C@H]1CC[C@H](Nc2ncc3nc(Nc4c(F)cc(F)cc4F)n([C@H]4CCOC4)c3n2)CC1 [TANZISERTIB] ? 0

Which Growth Rate is listed for Cc1cnc(-c2cc(Cl)ccc2F)cc1-n1c(=O)n(CC(N)=O)c2ccccc21 [Al11] ? 1

Which Growth Rate is listed for Cc1ccccc1C(=O)Nc1ccc(C(=O)N2CCCC(O)c3cc(Cl)ccc32)c(C)c1 (stereo unspecified) [TOLVAPTAN] ? 1

* * *

System: HEK-293T
assay.info: Multiplex assay against HEK293T
Assay type: toxicity, cell-based
test.conditions: human, 12 h, 1 µM, compound concentration 1 uM, replicate 1
measurement.name: Population Healthy Nuclei (%)
Provide the reading as a plain figure in %.

// below: answered compounds
CC1=C(C(=O)Nc2cc3cn[nH]c3cc2F)C(c2ccc(C(F)(F)F)cc2)CC(=O)N1 (stereo not drawn): 43
COc1ccccc1CN[C@H]1C2CCN(CC2)[C@H]1C(c1ccccc1)c1ccccc1 [CP-96345]: 37

Would you kindly look at the next entry?
Which Population Healthy Nuclei (%) is listed for "CCOC(=O)Nc1cc(-c2ccc(C)c(NS(C)(=O)=O)c2)nn2c(C)nnc12" ? 68

* * *

System: HEK-293T
assay.info: Multiplex assay against HEK293T
Assay type: toxicity, cell-based
test.conditions: human, 48 h, 1 µM, compound concentration 1 uM, replicate 2
measurement.name: Population Healthy Nuclei (%)
Provide the reading as a plain figure in %.

// below: answered molecules
COc1cc(Nc2nccc(-c3cnn4nc(OC)ccc34)n2)cc(C(F)(F)F)c1: 83
C[C@]12CC[C@@H]3c4ccc(O)cc4CC[C@H]3[C@@H]1CC[C@@H]2O: 81
CNC(=O)Nc1ccc(-c2nc(N3CC4CCC(C3)O4)c3cnn(C4CCC5(CC4)OCCO5)c3n2)cc1: 46
COc1ccc(-c2ccc3ncc4c(c3c2)n(-c2ccc(N3CCNCC3)c(C(F)(F)F)c2)c(=O)n4C)cn1.O=C(O)/C=C\C(=O)O: 18
COc1cc2ncn(-c3cc(OCc4ccccc4C(F)(F)F)c(C(N)=O)s3)c2cc1OC [GW843682X]: 63

Which Population Healthy Nuclei (%) is listed for "Cc1ccc(C)c(Oc2ccncc2C(=O)N2CCN(C3CC3)c3ccccc32)c1" ? 77

Which Population Healthy Nuclei (%) is listed for CC1=C(C(=O)Nc2cc3cn[nH]c3cc2F)C(c2ccc(C(F)(F)F)cc2)CC(=O)N1 (configuration not stated) ? 77

Which Population Healthy Nuclei (%) is listed for "COC(=O)C1=C(C)NC(C)=C(C(=O)OCCCN2CCC(c3ccccc3)(c3ccccc3)CC2)[C@H]1c1cccc([N+](=O)[O-])c1" ? 55

Which Population Healthy Nuclei (%) is listed for Cc1ccc2c(c1)c1c(n2CCc2ccc(C)nc2)CCN(C)C1 [LATREPIRDINE] ? 77

Which Population Healthy Nuclei (%) is listed for "CC(C)Oc1ccccc1C(=O)Nc1ccccc1C(=O)Nc1cccc(S(=O)(=O)C(F)(F)F)c1" ? 73

Which Population Healthy Nuclei (%) is listed for Cc1cccc(CN2CCN(C(c3ccccc3)c3ccc(Cl)cc3)CC2)c1.Cl.Cl (configuration not stated) ? 75

* * *

System: Fibroblast
assay.info: Multiplex assay against human fibroblast
Type: toxicity, cell-based
test.conditions: 12 h, 10 µM, compound concentration 10 uM, replicate 1
The compounds listed here are annotated with their Population Healthy Nuclei (%).

// below: answered compounds
CCc1nn(CCCN2CCN(c3cccc(Cl)c3)CC2)c(=O)n1CCOc1ccccc1.Cl [NEFAZODONE HYDROCHLORIDE]: 45%
CNC(=O)c1ccc(Nc2ncc(C(F)(F)F)c(NCc3nccnc3N(C)S(C)(=O)=O)n2)cc1: 58%
C=CC(=O)Nc1cccc(Oc2nc(Nc3ccc(N4CCN(C)CC4)cc3OC)ncc2Cl)c1: 42%
Cl.O=C(O)c1cc(-c2ccc(C3CCNCC3)cc2)c2ccc(-c3ccc(C(F)(F)F)cc3)cc2c1: 40%
COC(=O)C1=C(C)NC(C)=C(C(=O)OCCCN2CCC(c3ccccc3)(c3ccccc3)CC2)[C@H]1c1cccc([N+](=O)[O-])c1: 10%

Which Population Healthy Nuclei (%) is listed for "O=c1[nH]c2ccccc2n1C1CCN(Cc2ccc(-c3[nH]c4cc5ncnc5cc4nc3-c3ccccc3)cc2)CC1" ? 37%

Which Population Healthy Nuclei (%) is listed for "CCc1ccc(OCc2ccccc2C(=O)Nc2ccc3nc(C)cc(N)c3c2)cc1.Cl" ? 18%

Which Population Healthy Nuclei (%) is listed for "COc1ccccc1CN[C@H]1C2CCN(CC2)[C@H]1C(c1ccccc1)c1ccccc1" ? 45%

* * *

Tested on: HEK-293T
assay.info: Multiplex assay against HEK293T
Format: toxicity, cell-based
test.conditions: human, 24 h, 10 µM, compound concentration 10 uM, replicate 2
Mark met only for Population Fragmented Nuclei (%) values smaller than 7%; exact matches and larger values are not met.

Lab note: confirm whether the reported Population Fragmented Nuclei (%) for this compound is below 7%, equality not counting. compound: CCc1nn(CCCN2CCN(c3cccc(Cl)c3)CC2)c(=O)n1CCOc1ccccc1.Cl [NEFAZODONE HYDROCHLORIDE] met

Lab note: confirm whether the reported Population Fragmented Nuclei (%) for this compound is below 7%, equality not counting. compound: Cc1cccc(CN2CCN(C(c3ccccc3)c3ccc(Cl)cc3)CC2)c1.Cl.Cl (configuration not stated) met

Lab note: confirm whether the reported Population Fragmented Nuclei (%) for this compound is below 7%, equality not counting. compound: "CCc1ccc(OCc2ccccc2C(=O)Nc2ccc3nc(C)cc(N)c3c2)cc1.Cl" not met

Lab note: confirm whether the reported Population Fragmented Nuclei (%) for this compound is below 7%, equality not counting. compound: CC(C)CC(=O)Nc1[nH]nc2c1CN(C(=O)C1CCN(C)CC1)C2(C)C [PHA-793887] not met

Lab note: confirm whether the reported Population Fragmented Nuclei (%) for this compound is below 7%, equality not counting. compound: "CC(C)OC(=O)N1CCC(Oc2ncnc3c2cnn3-c2ccc(S(C)(=O)=O)cc2F)CC1" met

Lab note: confirm whether the reported Population Fragmented Nuclei (%) for this compound is below 7%, equality not counting. compound: CN1CCN(Cc2ccc(Nc3ncc(Cl)c(Nc4ccccc4S(=O)(=O)N(C)C)n3)cc2)CC1 [DUBERMATINIB] not met

Lab note: confirm whether the reported Population Fragmented Nuclei (%) for this compound is below 7%, equality not counting. compound: COc1cc2ncn(-c3cc(OCc4ccccc4C(F)(F)F)c(C(N)=O)s3)c2cc1OC [GW843682X] not met

Lab note: confirm whether the reported Population Fragmented Nuclei (%) for this compound is below 7%, equality not counting. compound: COc1ccc(-c2ccc3ncc4c(c3c2)n(-c2ccc(N3CCNCC3)c(C(F)(F)F)c2)c(=O)n4C)cn1.O=C(O)/C=C\C(=O)O [BGT-226] not met

These data points were gathered from ChEMBL document CHEMBL4689842.
